Each record here notes measured melting point.

Data request: Return reported melting point; argument: Cc1cc(C)c(COc2cccc3c2C(=O)c2c(Cl)ccc4c2c-3nn4CCNCCO)c(C)c1
Data returned: 147 to 158 °C

Data request: Entry CC1(C)NC(=O)N(CC(CS(=O)(=O)c2ccc(-c3ccc(C(F)(F)F)cc3)cc2)N(O)C=O)C1=O (stereo unspecified) please
Data returned: 180 to 182 °C

Data request: Continue with CN[C@@H]1COc2cc(Cl)cc(-c3ccccc3C)c2O1
Data returned: > 245 °C

Data request: Lookup COc1ccc(C(=O)OC2C(O)C=C(C)C(=O)CC2(C)C)cc1OC (stereo unspecified)
Data returned: 150 to 152 °C

Data request: Another molecule: O=C(O)CN1C(=O)C(=CC=Cc2ccccc2Br)SC1=S
Data returned: 241 to 244 °C

Data request: Continue with O=C(NOC1CCCCO1)c1ccccc1 (stereo unspecified)
Data returned: 130 to 134 °C

----------
melting point values, listed per item

Consider the reported melting point for these molecules:
* O=C(O)C(=O)c1ccc(OC/C=C/c2ccc(F)cc2)cc1 | 132 to 133 °C
* CC(=O)NCC(=O)NCC1(S)C2CC3CC(C2)CC1C3 (stereo unspecified) | 154 to 157 °C
* COC(=O)c1cc(-n2cnn(Cc3ccc(F)cc3)c2=O)nn1Cc1ccc(OC)cc1 | 139 to 140 °C

Data request: Any idea what its melting point is? The molecule is C=CCCCCCCOc1ccc(CCC(NC(C)=O)(C(=O)OCC)C(=O)OCC)cc1
Data returned: 50 to 53 °C

Data request: Next entry: CCNc1nc(-c2ccc(NC(=O)NCc3cccnc3)cc2)ccc1C(=O)NCCN1CCCCC1
Data returned: 164 to 165 °C

Data request: Entry to check: CNC1(CC2CCCCC2)C(=O)Nc2ccc(Cl)cc21 (stereo unspecified)
Data returned: 168 to 169 °C

----------
melting point by entry:

Some solved cases for reference:
* CC(C)CN1CCC2(CC1)CSC1=C(O2)c2ccccc2C(=O)C1=O | 158 to 161 °C
* CCCCS(=O)(=O)NC1Cc2ccccc2C1 | 60 to 62 °C
* Cc1c(NC(=O)c2ccc(OC[C@@H]3CCCO3)cc2F)ccc2cc(CNCC(C)(C)O)[nH]c12 | 148 to 149 °C

Data request: Entry COCCCNCc1ccc(-c2cc3ncnc(Nc4ccc5[nH]ccc5c4)c3s2)cc1 : reported melting point = ?
Data returned: 160 to 175 °C

Data request: Same lookup for Clc1ccc(NC2COc3ccc(Br)cc32)c(Cl)c1 (centres undefined) , please.
Data returned: 112 to 113 °C

Data request: Query CCOC(=O)C1=C(C)N(C)C(C)=C(C(=O)OC(C)C)C1c1cccc([N+](=O)[O-])c1 (centres undefined) next
Data returned: 100 to 101 °C

Data request: Try the molecule CC(C)c1ccc(NC(=O)Oc2ccc3c(c2)CCN3)cc1
Data returned: 166 to 170 °C

Data request: What about CC(=O)N(CCCCN1C(=O)c2ccccc2C1=O)c1ccccc1 ?
Data returned: 83 to 84 °C

Data request: Would you kindly repeat that for COC(=O)C1CCC2C3CCC4CC(=O)CCC4(C)C3C(NC3CCCCC3)CC12C (centres undefined) ?
Data returned: 93 to 94 °C
